Test system: SNB-75
Method description: NCI tumour cell line growth inhibition, 48 h
Active and inactive are the calls of the source. Rule as the data show it: active = GI50 up to about 1.1 µM and inactive = higher.
// allowed return values: 1 (yes) for active, 0 (no) for inactive

Example cases with answers are listed next.
Compound	Category
Cn1cncc1CC1COC(=O)C1C(O)c1ccccc1 (stereo not given)	0 (no)
COC(=O)c1ccc2n[se]nc2c1	0 (no)
c1csc(-c2cc(-c3cccs3)c(-c3cccs3)s2)c1	0 (no)
O=C1c2ccccc2C(=O)N1CCN(CCN1C(=O)c2ccccc2C1=O)Cn1cccn1	0 (no)
CCCCCCOP(=O)(OCCCCCC)C(NC(=O)OCC)(C(F)(F)F)C(F)(F)F	0 (no)

Problem: Please state the recorded outcome for this compound: `CCCc1[nH]c(SCCCCCCCCSc2nc(-c3ccc(F)cc3)c(CCC)[nH]2)nc1-c1ccc(F)cc1`
Solution: 0 (no)
